Sourced from patent US11161825B2

- system-name: untagged full length SMYD3 (Homo sapiens, UniProt Q9H7B4)
- Construct: As protein untagged full length SMYD3 was used
- Sequence (Q9H7B4 whole entry): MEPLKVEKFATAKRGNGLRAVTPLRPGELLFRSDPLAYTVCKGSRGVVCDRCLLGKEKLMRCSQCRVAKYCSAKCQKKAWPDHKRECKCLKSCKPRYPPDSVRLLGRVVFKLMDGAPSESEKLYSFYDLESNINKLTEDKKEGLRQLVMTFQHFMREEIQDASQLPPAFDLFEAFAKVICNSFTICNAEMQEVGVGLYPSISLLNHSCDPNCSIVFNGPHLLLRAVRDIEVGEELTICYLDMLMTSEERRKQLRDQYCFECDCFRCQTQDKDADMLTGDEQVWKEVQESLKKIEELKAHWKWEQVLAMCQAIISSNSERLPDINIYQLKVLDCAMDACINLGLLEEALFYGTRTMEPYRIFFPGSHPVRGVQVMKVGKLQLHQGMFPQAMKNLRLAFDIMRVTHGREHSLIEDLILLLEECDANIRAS
- assay-text: Thermal Shift Assay
- Type: binding
- condition-notes: protein 1.5-2.0 μM, 5× SYPRO Orange, scans 25° C. to 80° C.; control 4% DMSO
Recorded Thermal shift assay (° C.) by entry
metric-name: Thermal shift assay (° C.) (°C)

molecule: Cc1nocc1C(=O)N1c2ccc(C(=O)NCCC3CC3)cc2NC(=O)CC1C (racemic) [Example 5]
test-value: 2.90

molecule: CCCCCNC(=O)c1ccc2c(c1)NC(=O)CC(C)N2C(=O)c1ccc(C)cc1 (racemic) [Example 47]
test-value: 1.68

molecule: CC1CC(=O)Nc2cc(C(=O)NCCC3CCC3)ccc2N1C(=O)c1ccccc1 (racemic) [Example 3]
test-value: 4.56

molecule: CC1C(=O)Nc2cc(C(=O)NCCC3CCC3)ccc2N(C(=O)N2CCC(N)CC2)C1C (single isomer, unassigned) [Example 22]
test-value: 9.50

molecule: C[C@H]1CC(=O)Nc2cc(C(=O)NCCC3CC3)ccc2N1C(=O)N1CC2CC2C1 (stereo partly shown) [Example 23]
test-value: 9.88

molecule: Cc1nocc1C(=O)N1c2ccc(C(=O)NCCC3CCC3)cc2NC(=O)C(C)C1C (single isomer, unassigned) [Example 14]
test-value: 1.15

molecule: Cc1nocc1C(=O)N1c2ccc(C(=O)NCCC3CC3)cc2NC(=O)C(C)C1C (single isomer, unassigned) [Example 10]
test-value: 1.29
